Quick list: phosphorylation enrichment per entry.
Test system: c-Src
ASSAY PROCEDURE: phosphorylation enrichment, bacterial display (enrichment ratio); higher = better substrate or ligand; peptides without Tyr show the background;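 further: 11-residue human phosphosite peptides and single-mutation variants displayed on the E. coli surface, counted by deep sequencing, each peptide's frequency after selection divided by its frequency in the unselected input library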;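 further: frequency after pTyr selection over input frequency; kinase dosed for 20-30% of maximal phosphorylation in three min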
Provide a numeric answer; units are not to be included.

Solved cases (4 shown):
Query (sequence): PRAEWYRDDLL [MYOM2_Y317_V321L] ; field requested: phosphorylation enrichment
0.575

Cool, now NVTRKYTRQIL [MAP3K2_Y463]
0.373

Cool, now AVAFLYFKSIG [ADGRL4_Y301_V300L_YF]
0.441

Cool, now CQLENYCNGGG [INS_Y108_Y103C]
0.494

New cases:
Query (sequence): DLLNSYTENEG [HSPA4L_Y600_I601T] ; field requested: phosphorylation enrichment
0.616

Cool, now QRTMKYTTATG [MCCC1_Y41]
0.411

Cool, now KIVQDYLEKFF [MMP8_Y36_T32I_YF]
0.556

* * *

Quick list: phosphorylation enrichment per entry.
System: AncSZ
ASSAY PROCEDURE: phosphorylation enrichment, bacterial display (enrichment ratio); higher = better substrate or ligand; peptides without Tyr show the background
Provide a numeric answer; units are not to be included.

Solved cases (5 shown):
Query (sequence): ETGEPYRLSPE [EIF4G1_Y311] ; field requested: phosphorylation enrichment
1.19

Cool, now QNTGDYYDLYG [PTPN11_Y62]
5.36

Cool, now AQESNYRLLRR [SLC20A2_Y377]
0.738

Cool, now FSGQVYRQRRK [TH_Y230_D227G]
0.855

Cool, now NFFEFYVDDPL [GCHFR_Y48_P53L_YF]
1.09

New cases:
Query (sequence): DSMQSYDLDFP [UNC13B_Y243_YF] ; field requested: phosphorylation enrichment
1.15

Cool, now LLANAYIFVVQ [L1CAM_Y418_YF]
1.46

Cool, now TLSGIYQYSIA [FOXL2_Y81_I84S]
1.24

Cool, now EGWQVYRLGTR [MISP_Y95_A99T]
0.846

Cool, now ERRLIYASDPK [VPS13D_Y864_T865A]
0.634

Cool, now VKANTYEKYWL [GATM_Y100_P105L]
0.794

Cool, now HFEDGYPGGSD [CTNND1_Y221_YF]
1.15

Cool, now SSNPEYLSASD [INSR_Y999]
1.12

Cool, now RKQQLYIAMEE [CCDC39_Y593_T594I]
0.993

* * *

ASSAY SYSTEM: EPHB2 (UniProt P29323)
Sequence (P29323 whole entry, looked up): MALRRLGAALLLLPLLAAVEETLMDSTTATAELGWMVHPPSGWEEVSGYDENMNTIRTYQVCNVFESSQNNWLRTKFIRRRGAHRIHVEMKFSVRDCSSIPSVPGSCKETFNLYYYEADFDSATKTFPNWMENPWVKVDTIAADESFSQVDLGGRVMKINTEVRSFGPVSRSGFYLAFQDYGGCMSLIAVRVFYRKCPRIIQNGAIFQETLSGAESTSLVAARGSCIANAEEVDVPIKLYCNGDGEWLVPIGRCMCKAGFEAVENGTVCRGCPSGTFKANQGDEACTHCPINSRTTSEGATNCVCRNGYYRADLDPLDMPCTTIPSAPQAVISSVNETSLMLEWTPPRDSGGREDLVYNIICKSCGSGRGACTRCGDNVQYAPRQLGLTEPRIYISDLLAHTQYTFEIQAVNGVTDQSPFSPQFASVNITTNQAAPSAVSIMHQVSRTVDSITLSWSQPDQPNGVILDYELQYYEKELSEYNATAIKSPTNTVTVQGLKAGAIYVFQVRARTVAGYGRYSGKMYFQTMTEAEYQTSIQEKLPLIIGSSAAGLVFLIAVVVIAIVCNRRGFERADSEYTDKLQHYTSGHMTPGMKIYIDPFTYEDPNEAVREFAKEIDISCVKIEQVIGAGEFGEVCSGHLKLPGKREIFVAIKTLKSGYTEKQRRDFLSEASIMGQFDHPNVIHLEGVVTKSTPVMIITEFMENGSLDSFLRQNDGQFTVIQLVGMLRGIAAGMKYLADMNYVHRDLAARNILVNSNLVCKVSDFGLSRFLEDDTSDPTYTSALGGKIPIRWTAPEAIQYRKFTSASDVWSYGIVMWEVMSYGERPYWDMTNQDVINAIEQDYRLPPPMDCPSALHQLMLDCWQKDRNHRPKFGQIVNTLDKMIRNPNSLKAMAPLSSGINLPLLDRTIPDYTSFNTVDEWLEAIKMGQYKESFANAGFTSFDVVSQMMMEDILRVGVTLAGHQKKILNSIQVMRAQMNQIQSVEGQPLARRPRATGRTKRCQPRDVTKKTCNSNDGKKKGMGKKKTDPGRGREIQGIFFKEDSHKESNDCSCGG
ASSAY PROCEDURE: phosphorylation enrichment, bacterial display (enrichment ratio); higher = better substrate or ligand; peptides without Tyr show the background
Quick list: phosphorylation enrichment per entry.
Provide a numeric answer; units are not to be included.

Solved cases (5 shown):
EPHB2 (UniProt P29323) / phosphorylation enrichment / RMGNLYDIDEN [GRIN2A_Y1246_D1251N] : value?
1.44

Cool, now VDSNPYSRLVA [UBA5_Y53_M57V]
0.584

Cool, now TLSGIYQYSIA [FOXL2_Y81_I84S]
1.98

Cool, now NHRNQYQALKP [CLSPN_Y887]
0.377

Cool, now FAELMYTGFWH [ASS1_Y322_V321M]
4.76

New cases:
EPHB2 (UniProt P29323) / phosphorylation enrichment / VRSNHYDPEED [TJP1_Y1346] : value?
0.608

Cool, now KLCHLYQDHMQ [WNT5A_Y86]
0.53

Cool, now RQQEVYLLYKQ [RARRES1_Y159_D158V]
0.855

Cool, now DIMDLYNQPEP [IL36A_Y96]
0.602

Cool, now RQIQSYTCEID [DES_Y331_H326R]
0.514

Cool, now RPCVVYGGADI [DDX3X_Y301]
0.543

Cool, now AIYEGYALPHA [ACTC1_Y171_P166A]
30.1

Cool, now VECQVYAEDPY [PCCA_Y401_R399Q]
0.8

Cool, now TESALYGCTIL [MAP3K21_Y724_V728I]
0.989

Cool, now EREYKYGAHNY [OAT_Y50]
0.376

Cool, now YNNYGYGNDGF [HNRNPH3_Y161]
6.45

Cool, now KYLENYLNCLL [PLD2_Y169_R172C]
0.776

Cool, now VTRLWYPVCFG [ITK_Y336_R335W]
0.699

Cool, now AGADGYGFLAP [FOXL2_Y186_YF]
0.508

Cool, now SSNPEYLSASD [INSR_Y999]
0.594

Cool, now CQLENYCNGGG [INS_Y108_Y103C]
0.696

Cool, now EYGFRYELVQY [UGGT2_Y1289]
0.879

Cool, now FNNPAYFVLEG [INPPL1_Y986_YF]
0.588

Cool, now SLFNGYVYSGM [NEIL3_Y71_V76M]
0.579

Cool, now SLIDMYSEVLA [OPA1_Y268_D273A]
0.869
